tested on: DNA aptamer or structured DNA GGGACGACGGATTGCGCTTGCTAACGCCGTGTAGAGTCGTCGTCCC; conditions: 10 mM Tris-HCl, pH 7.4
Result Type: Kd (nM)
Numeric only. Scale: nM

GET /value?item= COc1ccc2c3c1O[C@H]1C(=O)CC[C@@]4(O)[C@@H](C2)N(C)CC[C@]314 &field=Kd returns 2160

---

test system: DNA aptamer or structured DNA GGGACGACAGCTTGGTTTGGTCGGGGTAGGGTTCGGATGTCGTCCC; conditions: 10 mM Tris-HCl, pH 7.4
Result Type: binding call; further: call rule not given here

Would you please look over these solved cases?
{"Molecule": "CCNC(C)C(=O)c1ccc2c(c1)OCO2 (configuration not stated)", "Tested Target": "DNA aptamer or structured DNA GGGACGACAGCTTGGTTTGGTCGGGGTAGGGTTCGGATGTCGTCCC", "Result": "binds"}
{"Molecule": "O=C1Nc2ccc(Cl)cc2C(c2ccccc2Cl)=NC1O (configuration not stated)", "Tested Target": "DNA aptamer or structured DNA GGGACGACAGCTTGGTTTGGTCGGGGTAGGGTTCGGATGTCGTCCC", "Result": "no binding"}
{"Molecule": "CC(N)Cc1ccccc1 (configuration not stated)", "Tested Target": "DNA aptamer or structured DNA GGGACGACAGCTTGGTTTGGTCGGGGTAGGGTTCGGATGTCGTCCC", "Result": "no binding"}
{"Molecule": "COC(=O)C(c1ccccc1)C1CCCCN1 (configuration not stated)", "Tested Target": "DNA aptamer or structured DNA GGGACGACAGCTTGGTTTGGTCGGGGTAGGGTTCGGATGTCGTCCC", "Result": "binds"}

Now let's try a different one.
Record O=C1CN=C(c2ccccc2Cl)c2cc([N+](=O)[O-])ccc2N1 , field binding call: no binding

---

tested on: DNA aptamer or structured DNA CTTACGACTAGGTGTGGGTCGGCCATTAGTGGAGGGTAGTCGTAAG; details: 10 mM Tris-HCl, pH 7.4
Result Type: Kd (nM)
Answer in nM, number only, no unit symbol.

Per the record, COC(=O)[C@@H]1C2CCC(C[C@@H]1OC(=O)c1ccccc1)N2C (stereo partly specified) has Kd of 735

---

tested on: DNA aptamer or structured DNA CTTACGACAGGCGGTGTGGTGCTGGGAATAGGGATGGTGTCGTAAG; settings: 10 mM Tris-HCl, pH 7.4
Result Type: binding call; further: call rule not given here

Answered examples (6):
{"Compound": "CCN(CC)CCOC(=O)c1ccc(N)cc1", "binding call": "binds"}
{"Compound": "CN1C2CCC1[C@@H](C(=O)O)[C@@H](OC(=O)c1ccccc1)C2 (stereo partly drawn)", "binding call": "no binding"}
{"Compound": "CCOC(=O)c1ccc(N)cc1", "binding call": "binds"}
{"Compound": "CCCCCc1cc(O)c2c(c1)OC(C)(C)[C@@H]1CCC(C)=C[C@@H]21", "binding call": "no binding"}
{"Compound": "NCCc1c[nH]c2ccc(O)cc12", "binding call": "no binding"}
{"Compound": "CC(C)Cc1ccc(C(C)C(=O)O)cc1 (stereo not drawn)", "binding call": "no binding"}

Looking up C=C[C@H]1CN2CC[C@@H]1C[C@H]2[C@H](O)c1ccnc2ccc(OC)cc12 , I see its binding call listed as no binding

Entry NCCc1ccc(O)c(O)c1 , binding call reported as binds

# compound Cc1nnc2n1-c1ccc(Cl)cc1C(c1ccccc1)=NC2 ; its binding call = no binding

Value of measured binding call for the entry Cn1c(=O)c2c(ncn2C)n(C)c1=O : binds

For reference, reported binding call for CCCCCn1cc(C(=O)C2C(C)(C)C2(C)C)c2ccccc21 stands at no binding

// binding call value for CC(N)Cc1ccccc1 (stereo not drawn) : no binding

Field binding call (entry CN1[C@@H]2CC(OC(=O)[C@H](CO)c3ccccc3)C[C@H]1[C@@H]1O[C@@H]12 (stereo partly drawn) ) reads no binding

---

system: DNA aptamer or structured DNA GGGACGACTAGCCGCGCGTTGTCCGACCCTTGGAAGTAGTCGTCCC; details: 10 mM Tris-HCl, pH 7.4
Result Type: pKd
API: returns pKd as number; meaning -log10 of concentration in mol/L.

pKd reported for this molecule CC(=O)Oc1ccc2c3c1O[C@H]1[C@@H](OC(C)=O)C=C[C@H]4[C@@H](C2)N(C)CC[C@@]341 : 5.51

---

test system: DNA aptamer or structured DNA CTTACGACTAGGTGTGGGTCGGCTCAATTCGGAGGGTAGTCGTAAG; settings: 10 mM Tris-HCl, pH 7.4
Result Type: pKd
Please report pKd as the negative decimal logarithm of the molar concentration, giving only the number.

In plain terms, COC(=O)[C@@H]1C2CCC(C[C@@H]1OC(=O)c1ccccc1)N2C (stereo partly specified) has a documented pKd of 6.34

---

test system: DNA aptamer or structured DNA CTTACGACCTAAGGGTCTGGAGTGGTTGTTATACGCTGGTCGTAAG; conditions: 10 mM Tris-HCl, pH 7.4
Result Type: pKd
// scale note: pKd = -log10(conc_M); give the bare number

Value of pKd reported for the molecule COC(=O)[C@@H]1C2CCC(C[C@@H]1OC(=O)c1ccccc1)N2C (stereo partly specified) is 6.66

---

system: DNA aptamer or structured DNA GGGACGACCTAGGGCTTGGGTTTAGGTGTGGGGTGTTGGGTCGTCCC; details: 10 mM Tris-HCl, pH 7.4
Result Type: pKd
In plain terms, pKd is the concentration in mol/L turned into minus its base-10 logarithm.

// field: pKd; key: CC(C)[C@H](NC(=O)c1nn(Cc2ccc(F)cc2)c2ccccc12)C(N)=O ; value = 7.15

---

test system: DNA aptamer or structured DNA CTTACGACACAGGGCGTGGAGGAGCTGGGCTATTAGGGGTCGTAAG; settings: 10 mM Tris-HCl, pH 7.4
Result Type: binding call; further: call rule not given here

Guide cases for binding call, answers given:
{"Molecule": "CCOC(=O)c1ccc(N)cc1", "Tested Target": "DNA aptamer or structured DNA CTTACGACACAGGGCGTGGAGGAGCTGGGCTATTAGGGGTCGTAAG", "binding call": "no binding"}
{"Molecule": "CCN(CC)CCOC(=O)c1ccc(N)cc1", "Tested Target": "DNA aptamer or structured DNA CTTACGACACAGGGCGTGGAGGAGCTGGGCTATTAGGGGTCGTAAG", "binding call": "no binding"}
{"Molecule": "CN1C2CCC1[C@@H](C(=O)O)[C@@H](OC(=O)c1ccccc1)C2 (some centres not stated)", "Tested Target": "DNA aptamer or structured DNA CTTACGACACAGGGCGTGGAGGAGCTGGGCTATTAGGGGTCGTAAG", "binding call": "binds"}
{"Molecule": "CC(=O)Nc1ccc(O)cc1", "Tested Target": "DNA aptamer or structured DNA CTTACGACACAGGGCGTGGAGGAGCTGGGCTATTAGGGGTCGTAAG", "binding call": "no binding"}
{"Molecule": "NCCc1ccc(O)c(O)c1", "Tested Target": "DNA aptamer or structured DNA CTTACGACACAGGGCGTGGAGGAGCTGGGCTATTAGGGGTCGTAAG", "binding call": "no binding"}
{"Molecule": "CCC(=O)C(CC(C)N(C)C)(c1ccccc1)c1ccccc1 (configuration not stated)", "Tested Target": "DNA aptamer or structured DNA CTTACGACACAGGGCGTGGAGGAGCTGGGCTATTAGGGGTCGTAAG", "binding call": "no binding"}
{"Molecule": "CN1CC[C@]23c4c5ccc(O)c4O[C@H]2[C@@H](O)C=C[C@H]3[C@H]1C5", "Tested Target": "DNA aptamer or structured DNA CTTACGACACAGGGCGTGGAGGAGCTGGGCTATTAGGGGTCGTAAG", "binding call": "no binding"}
{"Molecule": "CNC(C)C(=O)c1ccc(C)cc1 (configuration not stated)", "Tested Target": "DNA aptamer or structured DNA CTTACGACACAGGGCGTGGAGGAGCTGGGCTATTAGGGGTCGTAAG", "binding call": "no binding"}
{"Molecule": "CC(C)Cc1ccc(C(C)C(=O)O)cc1 (configuration not stated)", "Tested Target": "DNA aptamer or structured DNA CTTACGACACAGGGCGTGGAGGAGCTGGGCTATTAGGGGTCGTAAG", "binding call": "no binding"}
{"Molecule": "Cn1c(=O)c2c(ncn2C)n(C)c1=O", "Tested Target": "DNA aptamer or structured DNA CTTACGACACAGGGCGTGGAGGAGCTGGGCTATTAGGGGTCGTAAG", "binding call": "no binding"}

Form field binding call, entry CC(=O)Oc1ccc2c3c1O[C@H]1[C@@H](OC(C)=O)C=C[C@H]4[C@@H](C2)N(C)CC[C@@]341 : no binding

Sure, the documented binding call for CCCC(C(=O)c1ccc2c(c1)OCO2)N1CCCC1 (configuration not stated) is no binding

The measured binding call associated with OC[C@@H](O)[C@@H](O)[C@H](O)[C@H](O)CO reads no binding

Short answer for NCCc1c[nH]c2ccc(O)cc12 : binding call was no binding

The molecule identified as OCC1OC(OC2C(CO)OC(O)C(O)C2O)C(O)C(O)C1O (configuration not stated) registered its binding call at no binding

Measured binding call, C=C[C@H]1CN2CC[C@@H]1C[C@H]2[C@H](O)c1ccnc2ccc(OC)cc12 : no binding

Summary for this molecule, CN[C@@H](C)Cc1ccccc1 : binding call is no binding
